# protocol.notes: Cmax in CD-1 mouse lung at 25 mg/kg, INH using nebulizer measured at 0.25 to 24 hrs
# Format: ADME, organism-based
# Design: dose 25 mg/kg, time 0.25-24 hrs, route inh
# run.conditions: inhaled or intranasal
endpoint.label: Cmax (ng/g)

{"columns": ["entry.smiles", "uom", "value.reported"],
 "data": [
  ["CC(C)(C)OC(=O)Nc1cccn([C@@H](CC2CC2)C(=O)N[C@@H](C[C@@H]2CCNC2=O)C(=O)C(=O)NCc2ccccc2)c1=O", "ng/g", 262000]
]}

----------
# protocol.notes: Apparent oral clearance in CD-1 mouse plasma at 25 mg/kg, INH using nebulizer measured at 0.25 to 24 hrs
# Assay type: ADME, organism-based
# run.conditions: time 0.25-24 hrs

{"columns": ["entry.smiles", "CL/F / mL/min/kg"],
 "data": [
  ["CC(C)(C)OC(=O)Nc1cccn([C@@H](CC2CC2)C(=O)N[C@@H](C[C@@H]2CCNC2=O)C(=O)C(=O)NCc2ccccc2)c1=O", 83.9]
]}

----------
# Test system: Vero C1008
# protocol.notes: Cytotoxicity against African green monkey Vero E6 cells assessed as reduction in cell viability
# Type: toxicity, cell-based
# run.conditions: chlorocebus sabaeus

{"columns": ["entry.smiles", "CC50"],
 "data": [
  ["CC(C)(C)OC(=O)Nc1cccn([C@@H](CC2CC2)C(=O)N[C@@H](C[C@@H]2CCNC2=O)C(=O)C(=O)NCc2ccccc2)c1=O", "> 100 µM"]
]}

----------
# Tested on: SARS-CoV-2
# protocol.notes: Antiviral activity against SARS-CoV-2-alphaB.1.1.7 infected in human A549 cells expressing ACE2 and TMPRSS2 assessed as reduction in cytopathic effect pre-infected with virus on day 0 followed by compound addition on day 1 and measured after 4 days post infection by MTS assay
# Assay type: functional, organism-based
# run.conditions: Severe acute respiratory syndrome coronavirus 2, alphaB.1.1.7, A549
pEC50: −log10 of the molar value.
endpoint.label: pEC50

{"columns": ["entry.smiles", "measurement.target", "value.reported"],
 "data": [
  ["CC(C)(C)OC(=O)Nc1cccn([C@@H](CC2CC2)C(=O)N[C@@H](C[C@@H]2CCNC2=O)C(=O)C(=O)NCc2ccccc2)c1=O", "SARS-CoV-2", 6.08]
]}

----------
# protocol.notes: Oral bioavailability in CD-1 mouse at 100 mg/kg measured at 0.5 to 3 hrs
# Type: ADME, organism-based
# run.conditions: in vivo, time 0.5-3 hrs

{"columns": ["entry.smiles", "bioavailability [%]"],
 "data": [
  ["CC(C)(C)OC(=O)Nc1cccn([C@@H](CC2CC2)C(=O)N[C@@H](C[C@@H]2CCNC2=O)C(=O)C(=O)NCc2ccccc2)c1=O", 17]
]}

Numbers sourced from ChEMBL document CHEMBL5108058.
